B1: KLHL13 (parent)
chain: GVSKVGLRKIIDFIYTAKLSLNMD

variants of: B1; experiment: protein stability index of a GFP-peptide fusion (GPS, HEK-293T) (PSI 1-6); higher = more stable; details: c terminus: a fixed tail appended;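 also: lentivirally expressed fusions sorted by FACS into six bins by GFP to DsRed ratio, PSI derived from sequencing read proportions per bin multiplied by bin number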
I would appreciate it if you labelled entries Satisfied when protein stability index is 3 or higher, otherwise Not satisfied.

[[record]]
mutation = "I14D"
class_assignment = "Not satisfied"

[[record]]
mutation = "N22W"
class_assignment = "Not satisfied"

[[record]]
mutation = "V5F"
class_assignment = "Satisfied"

[[record]]
mutation = "K9Q"
class_assignment = "Not satisfied"

[[record]]
mutation = "I10Q"
class_assignment = "Not satisfied"


## Input Exam item: decide whether the reported protein stability index for "D12G" is at least 3.
## Output Satisfied

## Input For "M23Y" then?
## Output Satisfied

## Input For "N22F" then?
## Output Satisfied

## Input For "A17V" then?
## Output Not satisfied

## Input For "V2T" then?
## Output Satisfied
